EC50 listing for selected binders.
# Experimental System: T1, TIM-3 (T cell immunoglobulin and mucin-domain containing-3) (human, UniProt Q8TDQ0 22-200, limits assumed)
# T1 construct: also called TIMD-3; HAVCR2
# T1 sequence (looked up): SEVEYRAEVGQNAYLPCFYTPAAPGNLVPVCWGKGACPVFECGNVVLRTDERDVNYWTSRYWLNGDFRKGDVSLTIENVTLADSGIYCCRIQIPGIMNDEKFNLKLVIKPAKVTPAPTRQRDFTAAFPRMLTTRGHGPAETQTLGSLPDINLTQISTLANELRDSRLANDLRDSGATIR
# Assay Name: ELISA, Fab on TIM-3
Give just the numeric value; µg/mL need not be written.

Below: 4 binders and their reported EC50.
>>> value_observed("Fab clone 2G6 (Fab, V domains shown, Llama-derived Fab from an immune library; the constant domains of the Fab are not) VH: EVQLVESGGGLVQPGGSLRLSCAASGFTFSSYSMSWVRQAPGKGPEWVSGINTSGGTTSYAASVKGRFTVSRDNAKNTLSLQMNSLEPEDTAVYYCVKHIRWSGSNYYYYGMDYWGKGTLVTVSS VL: QAVLTQPPSVSGSPGQRFTISCTGSNRNIGNNYVNWYQQLPGTAPKLLIYSDNLRTSGVPARFSASKSGTTSSLTISGLQAEDEAVYYCSSWDDSLSGAVFGGGTHLTVL")
0.0133
>>> value_observed("Fab clone 2B6 (Fab, V domains shown, Llama-derived Fab from an immune library; the constant domains of the Fab are not) VH: QVQLVESGGGLVQPGGSLRLSCAASGFAFSSYDMSWVRQAPGKGLEWVSTINSGGGSTNYADSMKGRFTISRDNAKNTVYLQMNSLKPEDTAVYYCAARSPYYTRVPLYDYWGQGTQVTVSS VL: QAVVTQEPSLSVSLGGTVTLTCGLRSGSVTTSNYPGWFKQTPGQAPRTLIFGASSRHSGVPSRYSGSISGNKAALTITGAEPEDEADYYCALNKGTYTDVFGGGTKLTVL")
0.00852
>>> value_observed("Fab clone 2A9 (Fab, V domains shown, Llama-derived Fab from an immune library; the constant domains of the Fab are not) VH: QVQLVESGPGLVKPSQTLSLTCTVSGGSITTSDDAWSWIRQPAGKGLEWMGVIAYDGSTRYSPSLQSRTSISRDTSKNQFSLQLSSVTPEDTAVYYCARTKGVGGTWALDAWGQGTLVTVSS VL: EIVLTQSPSSVTASVGEKVTINCKSSQSVLSSSNQKNYLSWYQQRLGQSPRLLITWASTRESGVPDRFSGSGSTTDFTLTISSFQPEDAAVYYCQQGYGAPLTFGQGTKVELKR")
0.0114
>>> value_observed("Fab clone 2B10 (Fab, V domains shown, Llama-derived Fab from an immune library; the constant domains of the Fab are not; also called 2610; 21310) VH: QVQLQESGPGLVKPSQTLSLTCTVSGGSITTNRYLWTWIRQTPGKGLEWVGAIAYSGRTYYSPSLKSRTSISRDTSKNQFTLQLSSVTPEDTGVYYCAHFTGWGGYYWGQGTQVTVSS VL: QSALTQPPSVSGTLGKTVTISCAGTSSDIGGYNSVSWYQQLPGTAPKLLIYEVNKRASGIPDRFSGSKSGNTASLSISGLQSEDEADYYCASYRSANNVVFGGGTKLTVL")
0.014

Okay, next one:
I am curious: what EC50 value has been reported for Fab clone 2E7 (Fab, V domains shown, Llama-derived Fab from an immune library; the constant domains of the Fab are not) VH: ELQVVESGGGLVQPGGSLRLSCAASGFTFGSYDMSWHRQAPRKGPEWVSTISAGGGRTYYADSVKGRFTISRDNAKNTLYLQMNSLKPEDTAVYFCTKIVLDSWGQGTQVTVSS VL: DVVLTQTPGSLSVVPGESASISCKASQSLIHIDGKTYLYWLLQKPGRRPELLIYQVSNHESGVPDRFTGSGSGTDFTLKISGVKAEDAGVYYCAQATYYPSFGSGTRLEIK ?
0.0133
